target: ClpB NBD1-M (Thermus thermophilus, UniProt Q9RA63, R322A); construct: expressed in E. coli BL21 (DE3) RIL; monomer/dimer equilibrium for the arginine mutants; assay: fluorescence displacement titration against MANT-dADP; assay type: binding; details: read-out: KD(ATP); 2 µM protein; 50 mM Tris/HCl pH 7.5, 50 mM KCl, 5 mM MgCl2, 2 mM EDTA, 25 °C; ATP-regenerating system (phosphoenolpyruvate, pyruvate kinase)
Sequence (Q9RA63 141-534 R322A): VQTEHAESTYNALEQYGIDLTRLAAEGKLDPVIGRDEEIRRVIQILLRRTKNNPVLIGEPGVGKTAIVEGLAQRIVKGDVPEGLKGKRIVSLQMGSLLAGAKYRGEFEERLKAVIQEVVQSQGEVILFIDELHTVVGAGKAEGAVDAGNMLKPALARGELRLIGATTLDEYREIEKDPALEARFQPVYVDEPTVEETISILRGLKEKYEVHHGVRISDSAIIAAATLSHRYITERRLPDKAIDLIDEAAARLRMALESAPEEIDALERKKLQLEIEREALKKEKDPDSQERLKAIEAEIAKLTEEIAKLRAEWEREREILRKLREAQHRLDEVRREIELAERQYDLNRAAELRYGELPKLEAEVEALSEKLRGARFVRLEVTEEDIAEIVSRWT
observable: Kd (µM)

> print(dat)
                             moleculesmiles  observable  experimentalvalue
1  Nc1ncnc2c1ncn2[C@@H]1O[C@H](COP(=O)(O)OP(=O)(O)OP(=O)(O)O)[C@@H](O)[C@H]1O          Kd               1670

---

biological target: ClpB NBD1-M (Thermus thermophilus, UniProt Q9RA63, R322A/R323A); construct: expressed in E. coli BL21 (DE3) RIL; monomer/dimer equilibrium for the arginine mutants; assay: fluorescence displacement titration against MANT-dADP; format: binding; conditions: 2 µM protein; 50 mM Tris/HCl pH 7.5, 50 mM KCl, 5 mM MgCl2, 2 mM EDTA, 25 °C; read-out: KD(ADP)
pKd: −log10 of the molar value.
observable: pKd

> print(dat)
                             moleculesmiles  experimentalvalue
1  Nc1ncnc2c1ncn2[C@@H]1O[C@H](COP(=O)(O)OP(=O)(O)O)[C@@H](O)[C@H]1O               5.03

---

target: ClpB NBD1-M (Thermus thermophilus, UniProt Q9RA63, R322A); construct: expressed in E. coli BL21 (DE3) RIL; monomer/dimer equilibrium for the arginine mutants; test: stopped-flow FRET kinetics (koff/kon); assay type: binding
pKd: −log10 of the molar value.
observable: pKd

> print(dat)
                             moleculesmiles  experimentalvalue
1  CNc1ccccc1C(=O)O[C@H]1C[C@H](n2cnc3c(N)ncnc32)O[C@@H]1COP(=O)(O)OP(=O)(O)O               5.08
